Tested on: Caco-2
Assay: cell viability relative to DMSO; higher = less toxic
Conditions: 72 h; 1000 nM
Please go through the items and note down their cell viability.

Below: 8 compounds and their reported cell viability.
COMPOUND: C[C@@H]1O[C@@H]1P(=O)(O)O
cell viability: 94.1%

COMPOUND: CC1(C)C(=O)N(CCN2CCC(C(=O)c3ccc(F)cc3)CC2)c2ccccc21
cell viability: 97.2%

COMPOUND: Cc1ccc(NC(=O)Nc2cc(C(F)(F)F)ccc2F)cc1Nc1ccc2c(c1)NC(=O)/C2=C\c1ccc[nH]1
cell viability: 94.5%

COMPOUND: COc1nc(C)nc(Cl)c1NC1=NCCN1
cell viability: 105%

COMPOUND: COc1ccc2c(c1)C=C1Cn3c-2c(C2CCCCC2)c2ccc(cc23)C(=O)NS(=O)(=O)N(C)CCOCCN(C)C1=O
cell viability: 102%

COMPOUND: Cc1ccc(-n2sc(=O)n(Cc3ccc(F)cc3)c2=O)cc1
cell viability: 100%

COMPOUND: Cc1cccc(NC(=O)N[C@@H]2N=C(c3ccccc3)c3ccccc3N(C)C2=O)c1
cell viability: 110%

COMPOUND: CCOC(=O)c1ccc(N(C)c2csc(-c3ccccc3)n2)cc1
cell viability: 97.3%

Q: Quick check: cell viability of CCOC(=O)C1=C(COCCN)NC(C)=C(C(=O)OC)C1c1ccccc1Cl (centres undefined) ?
Ans: 93.5%

* * *

Tested on: U2OS
Assay: relative viability EC50 (midpoint between 100% and the lowest measured viability); higher = less toxic
Conditions: 72 h
For each of the molecules below, state its relative viability EC50.
Give bare numbers, in nM.

MOLECULE: CON(C)C(=O)N1N=C(c2cc(F)ccc2F)S[C@@]1(CCCN)c1ccccc1
READOUT UNITS: nM
relative viability EC50: 42.4

Next up:
Q: Please look up its relative viability EC50: O=C(CC1NCCCC1O)Cn1cnc2cc(Br)c(Cl)cc2c1=O (centres undefined)
Ans: 678

* * *

System: A549-ACE2
Assay: drug-induced phospholipidosis relative to tamoxifen; higher = more phospholipidosis
Conditions: 3.33333 µM; 48 h
I'd appreciate it if you could supply drug-induced phospholipidosis values for the items below.
Note: state the figure and append the unit.

// below: answered compounds
COMPOUND: CN1CCN(C2CCN(C(=O)Nc3cc(Oc4ccc(NC(=O)C5(C(=O)Nc6ccc(F)cc6)CC5)c(F)c4)ccn3)CC2)CC1
drug-induced phospholipidosis: 11.1%
//
COMPOUND: O=C(NCCN1CCC2(CC1)C(=O)NCN2c1cccc(F)c1)c1ccc(F)c(F)c1
drug-induced phospholipidosis: 17.8%

State recorded drug-induced phospholipidosis for all listed compounds.
1. O=C(Nc1ccc(-c2ccnc(Nc3ccc(N4CCOCC4)cc3)n2)cc1)C1CCCN1 (centres undefined)
2. COc1ccc2c(C)nc(Nc3nc(C)c(C)c(O)n3)nc2c1

Ans:
-8.92%
-1.09%

* * *

System: Caco-2
Assay: cell viability relative to DMSO; higher = less toxic
Details: 72 h; 1 nM
Give measured cell viability for each item. Keep answers brief.
One number for each entry, in %.

Solved cases below.
COMPOUND: Cc1cc2c(s1)Nc1ccccc1N=C2N1CCN(C)CC1
cell viability [%]: 97.8

COMPOUND: COc1ccc2[nH]c(C(=O)c3ccccc3)cc2c1
cell viability [%]: 95

COMPOUND: Cc1ccc2c(c1)c1c(n2CCc2ccc(C)nc2)CCN(C)C1 [latrepirdine]
cell viability [%]: 106

COMPOUND: O=NN(CCCl)C(=O)NC1CCCCC1
cell viability [%]: 89.7

COMPOUND: COc1cc2c(NC3CCN(C(C)C)CC3)nc(C3CCCCC3)nc2cc1OCCCN1CCCC1
cell viability [%]: 99.2

COMPOUND: CCOC(=O)c1ccc(OC(=O)CCCCCNC(=N)N)cc1 [gabexate]
cell viability [%]: 94.2

COMPOUND: CC(=O)N[C@@H](CC(C)C)C(=O)O
cell viability [%]: 95.7

COMPOUND: COc1cc2ncnc(Nc3ccc(Cl)cc3F)c2cc1OC
cell viability [%]: 91.1

# batch: return cell viability for each of the 2 compounds below
1. CC(C)(O)c1coc(S(=O)(=O)NC(=O)Nc2c3c(cc4c2CCC4)CCC3)c1
2. COc1ccc(CNCc2cccc3ccccc23)cc1

Ans:
106
92.5
